System: HeLa cells
test-details: Cell cycle assay in HeLa cells
Type: cell-based, human
experimental-setup: HeLa cells, 150 nM oligomeric compound, 24 hours, relative to untreated control (UTC = 100)
In the oligonucleotide strings, read from the 5' end, every base follows the letter of its sugar. An asterisk marks phosphorothioate; unmarked linkages are phosphodiester. Other units and linkages are bracketed, terminal groups are in braces. A string of capitals states the bases alone. e = 2'-O-(2-methoxyethyl) (MOE); [5mC] = 5-methylcytosine; d = 2'-deoxy (DNA)
assay-readout: % cells in cell cycle phase G2/M (%)
Express your answer in %, writing the number without its unit.

// below: answered substances
substance	units-of-measure	% cells in cell cycle phase G2/M
327956 (antisense e[5mC]*eA*e[5mC]*eA*eG*eT*eT*eG*e[5mC]*e[5mC]*eA*eG*e[5mC]*eT*eG*eA*eG*eA*eT*eT*eA) [compound 327956]	%	120
328687 (eG*e[5mC]*eT*eT*e[5mC]*d[5mC]*d[5mC]*dA*dG*d[5mC]*dG*dG*d[5mC]*d[5mC]*dT*eA*eT*eA*eG*eT; antisense) [compound 328687]	%	131
328644 (eG*eA*e[5mC]*eA*eA*dG*dG*dT*dG*dG*dG*dA*dG*d[5mC]*dG*eA*eG*eT*eG*eG; antisense) [compound 328644]	%	109

(Q) Look up % cells in cell cycle phase G2/M: 338836 (antisense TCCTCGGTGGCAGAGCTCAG; all 2'-MOE, all phosphorothioate, methylation of C not given here) [compound 338836]
(A) 105

(Q) Find the recorded % cells in cell cycle phase G2/M belonging to 328421 (antisense eG*e[5mC]*eT*eT*eA*dG*d[5mC]*dT*dG*dT*dG*dT*d[5mC]*dT*dT*eA*e[5mC]*eA*eG*e[5mC]) [compound 328421] and report it.
(A) 200

----------
Tested on: Glut4
test-details: Glut4 mRNA expression in adipocytes (real-time PCR)
Format: cell-based, human
experimental-setup: differentiating adipocytes transfected with oligomeric compound; Table 75
In the oligonucleotide strings, read from the 5' end, every base follows the letter of its sugar. An asterisk marks phosphorothioate; unmarked linkages are phosphodiester. Other units and linkages are bracketed, terminal groups are in braces. A string of capitals states the bases alone. e = 2'-O-(2-methoxyethyl) (MOE); [5mC] = 5-methylcytosine
Measured GLUT4 mRNA by item

(Q) Under Glut4: GLUT4 mRNA value of 344612 (ACGGAAGGGCAGAGAGGGCCAG; anti-miR; all 2'-MOE, all phosphorothioate, methylation of C not given here) [compound 344612] ?
(A) 40 percentage of untreated control (UTC)

(Q) Give Glut4 GLUT4 mRNA for 341796 (antisense UCAUACAGCUAGAUAACCAAAGA; all 2'-MOE, all phosphorothioate, methylation of C and T or U not given here) [compound 341796]
(A) 58 percentage of untreated control (UTC)

(Q) Request body: readout GLUT4 mRNA, system Glut4, query 346908 (GCUUUGACAAUACUAUUGCACUG; all 2'-MOE, all phosphorothioate, methylation of C and T or U not given here) [compound 346908] . Return the value.
(A) 65 percentage of untreated control (UTC)

(Q) Please provide the recorded GLUT4 mRNA for 344277 (antisense AAUACAUACUUCUUUACAUUCCA; all 2'-MOE, all phosphorothioate, methylation of C and T or U not given here) [compound 344277] , tested on Glut4.
(A) 45 percentage of untreated control (UTC)

(Q) Query the reported GLUT4 mRNA for Glut4; item: 348117 (GAACCCACAAUCCCUGGCUUA; all 2'-MOE, all phosphorothioate, methylation of C and T or U not given here) [compound 348117]
(A) 73 percentage of untreated control (UTC)

(Q) Please tell me: GLUT4 mRNA of 328096 (antisense e[5mC]*e[5mC]*eT*e[5mC]*eT*e[5mC]*eA*eA*eA*eG*eA*eT*eT*eT*e[5mC]*e[5mC]*eT*eG*eT*e[5mC]*eA) [compound 328096] , system Glut4?
(A) 79 percentage of untreated control (UTC)

(Q) GLUT4 mRNA of 328133 (eT*eG*eA*eA*eG*eG*eT*eT*e[5mC]*eG*eG*eA*eG*eA*eT*eA*eG*eG*e[5mC]*eT*eA; anti-miR) [compound 328133] on Glut4?
(A) 59 percentage of untreated control (UTC)

(Q) Return GLUT4 mRNA measured with Glut4 given this substance: 327943 (antisense eT*eA*eT*e[5mC]*eT*eG*e[5mC]*eA*e[5mC]*eT*eA*eG*eA*eT*eG*e[5mC]*eA*e[5mC]*e[5mC]*eT*eT*eA) [compound 327943]
(A) 87 percentage of untreated control (UTC)

(Q) I'm curious: which GLUT4 mRNA was measured for 328089 (antisense eA*e[5mC]*eT*eG*eT*eA*eG*eG*eA*eA*eT*eA*eT*eG*eT*eT*eT*eG*eA*eT*eA) [compound 328089] tested on Glut4?
(A) 59 percentage of untreated control (UTC)

(Q) Notebook entry, Glut4 assay: GLUT4 mRNA of 346687 (AGCAAGCCCAGACCGCAAAAAG; all 2'-MOE, all phosphorothioate, methylation of C not given here) [compound 346687] = ?
(A) 35 percentage of untreated control (UTC)

(Q) What GLUT4 mRNA appears in the records for this substance with Glut4? 328106 (antisense eA*eT*eT*eG*eA*eT*eG*e[5mC]*eG*e[5mC]*e[5mC]*eA*eT*eT*eT*eG*eG*e[5mC]*e[5mC]*eT*eA) [compound 328106]
(A) 79 percentage of untreated control (UTC)
